Here, each record is paired with measured pIC50 data.
System: U373-CD4-CCR5 cells
Assay: MTT cytotoxicity on the HIV host cells
Assay type: cell-based
Settings: U373-CD4-CCR5 cells, MTT, 48 h, n=2; tested up to 100 µM (compound 9 up to 500 µM); read-out: Cytotoxic IC50 ± SEM
pIC50: −log10 of the molar value.

Compound: CCCCOC1(c2cc(=O)c3c(O)cc(O)cc3o2)C=CC(=NO)CC1OC (stereo not drawn)
pIC50: 4.27
--
Compound: C#CCOC1(c2cc(=O)c3c(O)cc(O)cc3o2)C=CC(=NO)CC1OC (stereo not drawn)
pIC50: < 4.00
--
Compound: COC1CC(=NO)C=CC1(OC(C)C)c1cc(=O)c2c(O)cc(O)cc2o1 (stereo not drawn)
pIC50: < 4.00

* * *

Test: MTT cytotoxicity on the HIV host cells
Format: cell-based
Settings: human, U373-CD4-CCR5 cells, MTT, 48 h, n=2; tested up to 100 µM (compound 9 up to 500 µM); read-out: Cytotoxic IC50 ± SEM
Here, each record is paired with measured IC50 at 48 h data.

Molecule: CCCOC1(c2cc(=O)c3c(O)cc(O)cc3o2)CCC(=O)CC1 [Compound 12]
Comparator: >
IC50 at 48 h / nM: 100000
--
Molecule: O=C1C=CC(O)(c2cc(=O)c3c(O)cc(O)cc3o2)C=C1 [Compound 2, protoapigenone]
Comparator: =
IC50 at 48 h / nM: 220
--
Molecule: CCCCOC1(c2cc(=O)c3c(O)cc(O)cc3o2)C=CC(=O)C=C1 [Compound 7]
Comparator: =
IC50 at 48 h / nM: 250
--
Molecule: C#CCOC1(c2cc(=O)c3c(O)cc(O)cc3o2)C=CC(=O)C=C1 [Compound 8, protoapigenone 1′-O-propargyl ether]
Comparator: =
IC50 at 48 h / nM: 670
--
Molecule: COC1CC(=NO)C=CC1(OC(C)C)c1cc(=O)c2c(O)cc(O)cc2o1 (stereo not shown) [Compound 21]
Comparator: >
IC50 at 48 h / nM: 100000
--
Molecule: CCCCOC1(c2cc(=O)c3c(O)cc(O)cc3o2)C=CC(=NO)CC1OC (stereo not shown) [Compound 22]
Comparator: >
IC50 at 48 h / nM: 100000

Numbers sourced from paper PMC6940897.
